Test system: NCI-H292 lung cancer cells
Experiment: FDA drug screening, complete media vs cholesterol-free media with simvastatin (TABLE 2)
Type: cell-based, human
Details: NCI-H292 cells, FDA drug library screen, cholesterol-free media with simvastatin 0.04 μM
Where a name gives a salt, the structure may show the parent alone.
OBSERVABLE: Cholesterol-free media + simvastatin (0.04 μM)

Query: Cholesterol-free media + simvastatin (0.04 μM); subject: CCOC(=O)[C@H](CCc1ccccc1)N[C@H]1CCc2ccccc2N(CC(=O)O)C1=O [Benazepril (hydrochloride)]
1.077

Field request: Cholesterol-free media + simvastatin (0.04 μM) | item: C=CCc1ccccc1OCC(O)CNC(C)C (centres unmarked) [Alprenolol (hydrochloride)]
1.228

Could you tell me which Cholesterol-free media + simvastatin (0.04 μM) is on file for C[C@H](CCC(=O)O)[C@H]1CC[C@H]2[C@@H]3C[C@H](O)[C@@H]4C[C@H](O)CC[C@]4(C)[C@H]3CC[C@]12C ?
0.7549

Any idea what its Cholesterol-free media + simvastatin (0.04 μM) is? The molecule is Cc1ccc(C)c(OCCCC(C)(C)C(=O)O)c1
1.808

For COc1cc2nccc(Oc3ccc(NC(=O)Nc4cc(C)on4)c(Cl)c3)c2cc1OC , what is its reported Cholesterol-free media + simvastatin (0.04 μM)?
0.868

Field request: Cholesterol-free media + simvastatin (0.04 μM) | item: CCN[C@@H]1C[C@H](N)[C@@H](O[C@H]2OC(CN)=CC[C@H]2N)[C@H](O)[C@H]1O[C@H]1OC[C@](C)(O)[C@H](NC)[C@H]1O.CCN[C@@H]1C[C@H](N)[C@@H](O[C@H]2OC(CN)=CC[C@H]2N)[C@H](O)[C@H]1O[C@H]1OC[C@](C)(O)[C@H](NC)[C@H]1O.O=S(=O)(O)O.O=S(=O)(O)O.O=S(=O)(O)O.O=S(=O)(O)O.O=S(=O)(O)O [Netilmicin (sulfate)]
1.19

I'd like to know its Cholesterol-free media + simvastatin (0.04 μM). The molecule in question is CN(C)c1cc(CNCC(C)(C)C)c(O)c2c1C[C@H]1C[C@H]3[C@H](N(C)C)C(O)=C(C(N)=O)C(=O)[C@@]3(O)C(O)=C1C2=O [Omadacycline (hydrochloride)]
1.209

Please report the recorded Cholesterol-free media + simvastatin (0.04 μM) for COc1cc2ncnc(Nc3ccc(F)c(Cl)c3)c2cc1OCCCN1CCOCC1 [Gefitinib (hydrochloride)] .
0.9234

Hello, the source for this data is patent US20250144067A1, in case you need it.
